# combination Emax values compiled below
Test system: PANC-10-05 (Pancreatic Carcinoma)
Experiment: combination Emax (second highest fraction inhibited in the dose matrix, 72 h); higher = more inhibition; extreme values may be limits of the assay
API doc: respond with a numeric literal and nothing else, no unit.

Study these solved cases before continuing.
COMPOUND	combination Emax
C[C@@H](c1ccc2nccn2c1)n1nnc2ncc(-c3cnn(C)c3)nc21 [Savolitinib] + Cc1c2c(nn1C)CSCc1cc(n(C)n1)CSc1cc(c3ccccc3c1)OCCCc1c(C(=O)O)n(C)c3c-2c(Cl)ccc13 [AZD5991] (first compound max 1 µM, 7x7, partner max 1 µM)	0.153
CN(C)CCCOc1ccc(-c2ccc3ncc4c(c3c2)n(C2CCOCC2)c(=O)n4C)cn1 [AZD0156] + CCN(CCO)CCCOc1ccc2c(Nc3cc(CC(=O)Nc4cccc(F)c4)[nH]n3)ncnc2c1 [AZD2811] (first compound max 1 µM, 7x7, partner max 1 µM)	0.218
CCN(CCO)CCCOc1ccc2c(Nc3cc(CC(=O)Nc4cccc(F)c4)[nH]n3)ncnc2c1 [AZD2811] + O=C(c1cc(Cc2n[nH]c(=O)c3ccccc23)ccc1F)N1CCN(C(=O)C2CC2)CC1 [Olaparib] (first compound max 1 µM, 7x7, partner max 10 µM)	0.181
CC1(C)CCC(CN2CCN(c3ccc(C(=O)NS(=O)(=O)c4ccc(NCC5CCOCC5)c([N+](=O)[O-])c4)c(Oc4cnc5[nH]ccc5c4)c3)CC2)=C(c2ccc(Cl)cc2)C1 [Venetoclax] + CCN(CCO)CCCOc1ccc2c(Nc3cc(CC(=O)Nc4cccc(F)c4)[nH]n3)ncnc2c1 [AZD2811] (first compound max 1 µM, 7x7, partner max 1 µM)	0.288
COc1cccc(OCCCN)c1-c1cc(Nc2cnc(C#N)cn2)n[nH]1 [Prexasertib] + CN(C)CCCOc1ccc(-c2ccc3ncc4c(c3c2)n(C2CCOCC2)c(=O)n4C)cn1 [AZD0156] (first compound max 1 µM, 7x7, partner max 1 µM)	0.4
O=C(c1cc(Cc2n[nH]c(=O)c3ccccc23)ccc1F)N1CCN(C(=O)C2CC2)CC1 [Olaparib] + COc1nnc2ccc(N3CCC(c4ccc(OCCN5CCN(C)C(=O)[C@H]5C)cc4)CC3)nn12 [AZD5153] (first compound max 10 µM, 7x7, partner max 1 µM)	0.401

## Task Given NC1(C(=O)N[C@@H](CCO)c2ccc(Cl)cc2)CCN(c2ncnc3[nH]ccc23)CC1 [Capivasertib] + COc1nnc2ccc(N3CCC(c4ccc(OCCN5CCN(C)C(=O)[C@H]5C)cc4)CC3)nn12 [AZD5153] (first compound max 10 µM, 7x7, partner max 1 µM) , respond with its combination Emax.
## Result 0.669

## Task Name the recorded combination Emax of the item COc1cc2c(cc1OCCCCCOc1cc3c(cc1OC)C(=O)N1C=C(C)C[C@H]1C=N3)N=C[C@@H]1CC(C)=CN1C2=O [SG3199] + O=C(c1cc(Cc2n[nH]c(=O)c3ccccc23)ccc1F)N1CCN(C(=O)C2CC2)CC1 [Olaparib] (first compound max 0.001 µM, 7x7, partner max 10 µM) in your answer.
## Result 0.116

## Task Note combination Emax for the compound shown: CC1(C)CCC(CN2CCN(c3ccc(C(=O)NS(=O)(=O)c4ccc(NCC5CCOCC5)c([N+](=O)[O-])c4)c(Oc4cnc5[nH]ccc5c4)c3)CC2)=C(c2ccc(Cl)cc2)C1 [Venetoclax] + COc1cc(Nc2ncc3c(n2)-c2ccc(Cl)cc2C(c2c(F)cccc2OC)=NC3)ccc1C(=O)O [Alisertib] (first compound max 1 µM, 7x7, partner max 10 µM)
## Result 0.302

Provenance of the data: the supplement of paper PMC11061612
